From: patent US20130072470A1

- MEASURED_TARGET: Jak3 enzyme (aa 811-1103) (Homo sapiens, UniProt P52333)
- Construct: Jak3 enzyme (aa 811-1103); expressed in SF9 cells as a GST fusion; GST; made in house; host or cells: SF9 insect cells
- Sequence (P52333 811-1103): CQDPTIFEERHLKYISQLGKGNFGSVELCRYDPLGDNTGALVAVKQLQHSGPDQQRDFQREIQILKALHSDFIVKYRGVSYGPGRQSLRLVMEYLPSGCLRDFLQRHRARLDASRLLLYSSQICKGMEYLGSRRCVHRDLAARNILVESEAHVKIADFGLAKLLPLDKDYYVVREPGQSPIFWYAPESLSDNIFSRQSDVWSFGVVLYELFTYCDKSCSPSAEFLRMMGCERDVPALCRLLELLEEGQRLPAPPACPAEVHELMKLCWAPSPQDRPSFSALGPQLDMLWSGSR
- ASSAY_INFO: In vitro Jak3 kinase activity measured by time-resolved fluorescence resonance energy transfer (trFRET)
- Assay type: biochemical
- PROTOCOL_CONDITIONS: ATP 0.001 mM, Table B
pIC50: −log10 of the molar value.
Recorded pIC50 values for a group of compounds are listed next.

Answered examples (8):
{"columns": ["COMPOUND", "pIC50"],
 "data": [
  ["CC[C@@H]1C[C@H](NC(=O)CNC(=O)c2ccco2)C[C@@H]1c1nnc2cnc3[nH]ccc3n12", "5.00 to 6.00"],
  ["CC[C@@H]1C[C@H](NC(=O)c2ccc(CSC)o2)C[C@@H]1c1nnc2cnc3[nH]ccc3n12", "5.00 to 6.00"],
  ["CC[C@@H]1C[C@H](NC(=O)c2occc2C)C[C@@H]1c1nnc2cnc3[nH]ccc3n12", "5.00 to 6.00"],
  ["CC[C@@H]1C[C@H](NC(=O)c2cc(C)no2)C[C@@H]1c1nnc2cnc3[nH]ccc3n12", "5.00 to 6.00"],
  ["CC[C@@H]1C[C@H](NC(=O)c2cc(-c3ccco3)on2)C[C@@H]1c1nnc2cnc3[nH]ccc3n12", "> 6.00"],
  ["CC[C@@H]1C[C@H](NC(=O)CCC2CCCCC2=O)C[C@@H]1c1nnc2cnc3[nH]ccc3n12 (stereo partly drawn)", "< 5.00"],
  ["CC[C@@H]1C[C@H](NC(=O)c2ccoc2C)C[C@@H]1c1nnc2cnc3[nH]ccc3n12", "5.00 to 6.00"],
  ["CC[C@@H]1C[C@H](NC(=O)c2oc3ccccc3c2C)C[C@@H]1c1nnc2cnc3[nH]ccc3n12", "5.00 to 6.00"]
]}

[Q] I am curious: what pIC50 value has been reported for CC[C@@H]1C[C@H](NC(=O)c2c(C)oc3c2CCCC3)C[C@@H]1c1nnc2cnc3[nH]ccc3n12 ?
[A] 5.00 to 6.00

[Q] I am curious: what pIC50 value has been reported for CC[C@@H]1C[C@H](NC(=O)c2cocn2)C[C@@H]1c1nnc2cnc3[nH]ccc3n12 ?
[A] 5.00 to 6.00

[Q] I am curious: what pIC50 value has been reported for CC[C@@H]1C[C@H](NC(=O)c2ncoc2C2CC2)C[C@@H]1c1nnc2cnc3[nH]ccc3n12 ?
[A] < 5.00

[Q] I am curious: what pIC50 value has been reported for CC[C@@H]1C[C@H](NC(=O)CSc2nnc(C)o2)C[C@@H]1c1nnc2cnc3[nH]ccc3n12 ?
[A] 5.00 to 6.00

[Q] I am curious: what pIC50 value has been reported for CC[C@@H]1C[C@H](NC(=O)CCc2ccco2)C[C@@H]1c1nnc2cnc3[nH]ccc3n12 ?
[A] > 6.00

[Q] I am curious: what pIC50 value has been reported for CC[C@@H]1C[C@H](NC(=O)c2ccoc2)C[C@@H]1c1nnc2cnc3[nH]ccc3n12 ?
[A] 5.00 to 6.00

[Q] I am curious: what pIC50 value has been reported for CC[C@@H]1C[C@H](NC(=O)CCC2NC(=O)NC2=O)C[C@@H]1c1nnc2cnc3[nH]ccc3n12 (stereo partly drawn) ?
[A] 5.00 to 6.00

[Q] I am curious: what pIC50 value has been reported for CC[C@@H]1C[C@H](NC(=O)CN(C)C(=O)c2ccco2)C[C@@H]1c1nnc2cnc3[nH]ccc3n12 ?
[A] < 5.00

[Q] I am curious: what pIC50 value has been reported for CC[C@@H]1C[C@H](NC(=O)c2cnco2)C[C@@H]1c1nnc2cnc3[nH]ccc3n12 ?
[A] 5.00 to 6.00

[Q] I am curious: what pIC50 value has been reported for CC[C@@H]1C[C@H](NC(=O)c2cnoc2C2CC2)C[C@@H]1c1nnc2cnc3[nH]ccc3n12 ?
[A] 5.00 to 6.00

[Q] I am curious: what pIC50 value has been reported for CC[C@@H]1C[C@H](NC(=O)C2(C#N)CC2)C[C@@H]1c1nnc2cnc3[nH]ccc3n12 ?
[A] 5.00 to 6.00

[Q] I am curious: what pIC50 value has been reported for CC[C@@H]1C[C@H](NC(=O)c2conc2C)C[C@@H]1c1nnc2cnc3[nH]ccc3n12 ?
[A] 5.00 to 6.00

* * *

- MEASURED_TARGET: Jak3 enzyme (aa 811-1103) (Homo sapiens)
- Construct: Jak3 enzyme (aa 811-1103); expressed in SF9 cells as a GST fusion; GST; made in house; host or cells: SF9 insect cells
- ASSAY_INFO: In vitro Jak3 kinase activity measured by time-resolved fluorescence resonance energy transfer (trFRET)
- Assay type: biochemical
- PROTOCOL_CONDITIONS: ATP 0.001 mM
MEASURED_PROPERTY: IC50

Answered examples (4):
{"columns": ["MOL_SMILES", "MEASURED_PROPERTY", "REPORTED_VALUE"],
 "data": [
  ["C[C@@H]1C[C@@H](N2CCC(C#N)CC2)C[C@@H]1c1cnc2cnc3[nH]ccc3n12", "IC50", "> 10 µM"],
  ["C[C@@H]1CN(C(=O)NCC(F)(F)F)C[C@@H]1c1cnc2cnc3[nH]ccc3n12", "IC50", "> 10 µM"],
  ["CC[C@@H]1C[C@@H](CCC#N)C[C@@H]1c1nnc2cnc3[nH]ccc3n12", "IC50", "1 to 10 µM"],
  ["CC[C@@H]1CN(C(=O)CCC(F)(F)F)C[C@@H]1c1cnc2cnc3[nH]ccc3n12", "IC50", "1 to 10 µM"]
]}

[Q] I am curious: what IC50 value has been reported for CC[C@@H]1CN(C(=O)CCCC#N)C[C@@H]1c1cnc2cnc3[nH]ccc3n12 ?
[A] 1 to 10 µM

[Q] I am curious: what IC50 value has been reported for CC[C@@H]1C[C@H](NC(=O)c2coc(C)n2)C[C@@H]1c1nnc2cnc3[nH]ccc3n12 ?
[A] 1 to 10 µM

[Q] I am curious: what IC50 value has been reported for CC[C@@H]1C[C@H](CCC#N)C[C@@H]1c1nnc2cnc3[nH]ccc3n12 ?
[A] 1 to 10 µM

[Q] I am curious: what IC50 value has been reported for C[C@@H]1CN(C(=O)CC2CC2)C[C@@H]1c1cnc2cnc3[nH]ccc3n12 ?
[A] 1 to 10 µM

[Q] I am curious: what IC50 value has been reported for C[C@@H]1C[C@H](N(C)C(=O)c2cocn2)C[C@@H]1c1cnc2cnc3[nH]ccc3n12 ?
[A] 1 to 10 µM

[Q] I am curious: what IC50 value has been reported for CC[C@@H]1CN(C(=O)NCCF)C[C@@H]1c1cnc2cnc3[nH]ccc3n12 ?
[A] 1 to 10 µM

[Q] I am curious: what IC50 value has been reported for CC[C@@H]1CN(C(=O)NCC(F)F)C[C@@H]1c1cnc2cnc3[nH]ccc3n12 ?
[A] 1 to 10 µM

[Q] I am curious: what IC50 value has been reported for C[C@@H]1C[C@@H](CCC#N)C[C@@H]1c1nnc2cnc3[nH]ccc3n12 ?
[A] 1 to 10 µM

[Q] I am curious: what IC50 value has been reported for C[C@@H]1C[C@@H](CCC#N)C[C@@H]1n1nnc2cnc3[nH]ccc3c21 ?
[A] 1 to 10 µM

[Q] I am curious: what IC50 value has been reported for CC[C@@H]1CN(C(=O)NC2CCC2)C[C@@H]1c1cnc2cnc3[nH]ccc3n12 ?
[A] > 10 µM

[Q] I am curious: what IC50 value has been reported for CC[C@@H]1CN(C(=O)NCC(C)(F)F)C[C@@H]1c1cnc2cnc3[nH]ccc3n12 ?
[A] > 10 µM

[Q] I am curious: what IC50 value has been reported for C[C@@H]1C[C@H](NC(=O)c2cccnn2)C[C@@H]1c1cnc2cnc3[nH]ccc3n12 ?
[A] > 10 µM

[Q] I am curious: what IC50 value has been reported for C[C@@H]1C[C@H](N2CCC(C#N)CC2)C[C@@H]1c1cnc2cnc3[nH]ccc3n12 ?
[A] > 10 µM

[Q] I am curious: what IC50 value has been reported for C[C@@H]1C[C@H](NCc2cnc(C(F)(F)F)nc2)C[C@@H]1c1cnc2cnc3[nH]ccc3n12 ?
[A] > 10 µM

[Q] I am curious: what IC50 value has been reported for CC[C@@H]1C[C@@H](C(=O)NCC(F)(F)F)C[C@@H]1c1nnc2cnc3[nH]ccc3n12 ?
[A] > 10 µM

[Q] I am curious: what IC50 value has been reported for C[C@@H]1CN(C(=O)N2CCOCC2)C[C@@H]1c1cnc2cnc3[nH]ccc3n12 ?
[A] > 10 µM

[Q] I am curious: what IC50 value has been reported for C[C@@H]1C[C@H](CCC#N)C[C@@H]1c1nnc2cnc3[nH]ccc3n12 ?
[A] > 10 µM

[Q] I am curious: what IC50 value has been reported for C[C@@H]1CN(C(=O)NCC(F)F)C[C@@H]1c1cnc2cnc3[nH]ccc3n12 ?
[A] 1 to 10 µM

[Q] I am curious: what IC50 value has been reported for Cc1cnc(C(=O)N[C@H]2C[C@@H](C)[C@@H](c3cnc4cnc5[nH]ccc5n34)C2)cn1 ?
[A] > 10 µM
